# experimental.details: PAMPA (parallel artificial membrane permeability assay)
# Assay type: in vitro ADME
# measurement.parameters: PAMPA; membrane permeation rate (Pe); 50 mM MOPSO buffer pH 6.5 with 5.0% glycocholic acid, 37° C., 18 hours; read-out: iPAMPA Pe
Starred links: 1 amine or outer side, 2 acyl side, 3 side chain; linkers in the order of their positions; H or OH if unused. Positions of bridges follow the written chain, without caps; N, C: chain ends. Non-standard residues stand in square brackets, D forms with d. Residues, ends and D or L forms follow the SMILES beside them. *: point of attachment. Phe(3-(CH2)4CO) = O=C([C@H](Cc1cccc(CCCCC(=O)[*:3])c1)N[*:1])[*:2]; NMeF = CN[C@@H](Cc1ccccc1)C(=O)O; NMeL = CN[C@@H](CC(C)C)C(=O)O; NMeA = CN[C@@H](C)C(=O)O; Piperidide = C1CCN(*)CC1; Sar = CNCC(=O)O
endpoint.label: Papp at 18 hours, 50 µM (×10⁻⁶ cm/s)
Answers are plain numbers, in ×10⁻⁶ cm/s.

Illustrative cases are given below, each with its answer.
CC[C@H](C)[C@@H]1NC(=O)[C@H](Cc2ccccc2)N(C)C(=O)[C@H](Cc2ccccc2)NC(=O)[C@H](CC(C)C)N(C)C(=O)[C@H](C(C)C)NC(=O)[C@H](CC(C)C)NC(=O)[C@H](C)N(C)C(=O)CNC(=O)CCCCc2cccc(c2)C[C@@H](C(=O)N2CCCCC2)NC(=O)[C@H]([C@@H](C)O)NC(=O)[C@H](CC(C)C)NC(=O)[C@H](C)N(C)C1=O [DP-893] (G[NMeA]LV[NMeL]F[NMeF]I[NMeA]LT[Phe(3-(CH2)4CO)]-Piperidide; lactam N-12)
5.3
CC(C)C[C@H]1C(=O)N(C)[C@@H](Cc2ccccc2)C(=O)N[C@@H]([C@@H](C)O)C(=O)N(C)[C@@H](C)C(=O)N(C)[C@@H](CC(C)C)C(=O)N[C@@H](C(C)C)C(=O)N(C)[C@@H](CC(C)C)C(=O)N[C@H](C(=O)N(C)[C@@H](Cc2ccccc2)C(=O)N[C@@H](C)C(=O)N2CCCCC2)CC(=O)N(C)CC(=O)N1C [DP-202] ([Sar][NMeL][NMeF]T[NMeA][NMeL]V[NMeL]D[NMeF]A-Piperidide; lactam N-9)
55

Note: attention shifts to another entry.
Notebook: CC[C@H](C)[C@@H]1NC(=O)[C@H](CC(C)C)NC(=O)[C@H](Cc2ccccc2)NC(=O)[C@H](CC(C)C)NC(=O)CN(C)C(=O)[C@H](Cc2ccccc2)NC(=O)[C@H](C)NC(=O)C[C@@H](C(=O)N2CCCCC2)NC(=O)[C@H](Cc2ccccc2)NC(=O)[C@H]([C@@H](C)O)NC1=O [DP-330] (AF[Sar]LFLITFD-Piperidide; lactam N-10) , Papp at 18 hours, 50 µM read as 9.9
